# Tested on: U2OS
# run-description: Multiplex assay against U2OS
# Format: toxicity, cell-based
# conditions-used: human, 48 h, 1 µM, compound concentration 1 uM, replicate 2
Non-standard residues stand in square brackets, D forms with d. Residues, ends and D or L forms follow the SMILES beside them.
measurement-label: Population Pyknosed Nuclei (%)

- molecule: "O=C(NCCNCC(O)COc1ccc(O)cc1)N1CCOCC1.O=C(NCCNCC(O)COc1ccc(O)cc1)N1CCOCC1.O=C(O)/C=C/C(=O)O (stereo not drawn) [XAMOTEROL FUMARATE]"
  measured-on: "U2OS"
  measurement-label: "Population Pyknosed Nuclei (%)"
  reported-measurement: 13
- molecule: "COC(c1ccccc1)(c1ccccc1)[C@H](Oc1nc(C)cc(C)n1)C(=O)O [AMBRISENTAN]"
  measured-on: "U2OS"
  measurement-label: "Population Pyknosed Nuclei (%)"
  reported-measurement: 10
- molecule: "CN1CCN2c3ccccc3Cc3ccccc3C2C1.Cl (stereo not drawn) [MIANSERIN HYDROCHLORIDE]"
  measured-on: "U2OS"
  measurement-label: "Population Pyknosed Nuclei (%)"
  reported-measurement: 9
- molecule: "CCn1c(-c2nc3cc(C(=O)N4CCCC(N)C4)ccc3n2C)cc2ccccc21.Cl (stereo not drawn)"
  measured-on: "U2OS"
  measurement-label: "Population Pyknosed Nuclei (%)"
  reported-measurement: 7
- molecule: "CC(C)C[C@@H]1NC(=O)[C@@H](C(C)C)NC(=O)[C@@H]2CCCN2C(=O)[C@@H](CC(=O)O)NC(=O)[C@@H](Cc2c[nH]c3ccccc23)NC1=O [BQ-123] (cyclo(L[dW][dD]P[dV]))"
  measured-on: "U2OS"
  measurement-label: "Population Pyknosed Nuclei (%)"
  reported-measurement: 10
- molecule: "CN1CCN(c2ccc(Nc3c4ccccc4nc4ccccc34)cc2)CC1.Cl.Cl.O"
  measured-on: "U2OS"
  measurement-label: "Population Pyknosed Nuclei (%)"
  reported-measurement: 12
- molecule: "CN1C[C@H](C(=O)N[C@]2(C)O[C@@]3(O)[C@@H]4CCCN4C(=O)[C@H](Cc4ccccc4)N3C2=O)C[C@@H]2c3cccc4[nH]cc(c34)C[C@H]21.CS(=O)(=O)O [DIHYDROERGOTAMINE MESYLATE]"
  measured-on: "U2OS"
  measurement-label: "Population Pyknosed Nuclei (%)"
  reported-measurement: 11
- molecule: "COc1cc2nc(N3CCN(C(=O)COc4c(OC)cccc4C(C)C)CC3)nc(N)c2cc1OC.Cl.Cl"
  measured-on: "U2OS"
  measurement-label: "Population Pyknosed Nuclei (%)"
  reported-measurement: 11
- molecule: "COCCn1c(C)c(C)s/c1=N\\C(=O)C1C(C)(C)C1(C)C"
  measured-on: "U2OS"
  measurement-label: "Population Pyknosed Nuclei (%)"
  reported-measurement: 4
- molecule: "Nc1nc(-c2ccco2)c2cnn(Cc3ccccc3F)c2n1"
  measured-on: "U2OS"
  measurement-label: "Population Pyknosed Nuclei (%)"
  reported-measurement: 15
- molecule: "N[C@](CC1c2ccccc2Oc2ccccc21)(C(=O)O)[C@H]1C[C@@H]1C(=O)O"
  measured-on: "U2OS"
  measurement-label: "Population Pyknosed Nuclei (%)"
  reported-measurement: 10
- molecule: "Cc1cc(=O)n(C)c2cc(N3C(=O)CC[C@H](NS(=O)(=O)CC(C)C)[C@H]3c3ccc(Cl)cc3)ccc12"
  measured-on: "U2OS"
  measurement-label: "Population Pyknosed Nuclei (%)"
  reported-measurement: 10
- molecule: "Cc1sc2c(c1C)C(c1ccc(Cl)cc1)=N[C@H](CC(=O)OC(C)(C)C)c1nnc(C)n1-2"
  measured-on: "U2OS"
  measurement-label: "Population Pyknosed Nuclei (%)"
  reported-measurement: 14
- molecule: "S=C(NCCCc1c[nH]cn1)NCCCN(Cc1ccc(Cl)c(Cl)c1)c1ccc(Br)cn1"
  measured-on: "U2OS"
  measurement-label: "Population Pyknosed Nuclei (%)"
  reported-measurement: 11
- molecule: "CN1CCC(C(=O)c2cccc(NC(=O)c3c(F)cc(F)cc3F)n2)CC1"
  measured-on: "U2OS"
  measurement-label: "Population Pyknosed Nuclei (%)"
  reported-measurement: 13
- molecule: "OCCCNc1cc(-c2ccnc(Nc3cccc(Cl)c3)n2)ccn1"
  measured-on: "U2OS"
  measurement-label: "Population Pyknosed Nuclei (%)"
  reported-measurement: 28
- molecule: "COc1cc(Nc2ncc3c(n2)-c2ccc(Cl)cc2C(c2c(F)cccc2OC)=NC3)ccc1C(=O)O [ALISERTIB]"
  measured-on: "U2OS"
  measurement-label: "Population Pyknosed Nuclei (%)"
  reported-measurement: 17
- molecule: "Cn1cc(C(=O)OCC2CCN(CCNS(C)(=O)=O)CC2)c2ccccc21"
  measured-on: "U2OS"
  measurement-label: "Population Pyknosed Nuclei (%)"
  reported-measurement: 10
- molecule: "CCCCCCNC(=O)Nc1ccc(S(=O)(=O)Nc2ccc(CCNC[C@H](O)COc3ccc(O)cc3)cc2)cc1 [L-755507]"
  measured-on: "U2OS"
  measurement-label: "Population Pyknosed Nuclei (%)"
  reported-measurement: 12
- molecule: "CC(C)(O)C(=O)N1CCN(c2ccc(C(F)(F)F)c(C3=C(c4c[nH]c5ccccc45)C(=O)NC3=O)c2)CC1"
  measured-on: "U2OS"
  measurement-label: "Population Pyknosed Nuclei (%)"
  reported-measurement: 9
- molecule: "Cc1nn(C)c2nc(NNC(=O)Nc3cc(Cl)nc(Cl)c3)cc(C(C)C)c12"
  measured-on: "U2OS"
  measurement-label: "Population Pyknosed Nuclei (%)"
  reported-measurement: 12
- molecule: "Cc1cc(NC(=O)NCCN2CCC(O)(Cc3ccccc3)CC2)c2ccccc2n1 [PALOSURAN]"
  measured-on: "U2OS"
  measurement-label: "Population Pyknosed Nuclei (%)"
  reported-measurement: 11
- molecule: "COc1cc(C(=O)N2CC[C@@H](O)[C@@H](N)C2)cc2nc(-c3cc4ccccc4n3CC3CC3)n(C)c12.Cl"
  measured-on: "U2OS"
  measurement-label: "Population Pyknosed Nuclei (%)"
  reported-measurement: 14
- molecule: "C=CCN1C[C@H](C(=O)N(CCCN(C)C)C(=O)NCC)C[C@@H]2c3cccc4[nH]cc(c34)C[C@H]21 [CABERGOLINE]"
  measured-on: "U2OS"
  measurement-label: "Population Pyknosed Nuclei (%)"
  reported-measurement: 13
- molecule: "COc1c(Nc2ccc(S(C)(=O)=O)nc2C)ncnc1OC1CCN(C(=O)OC(C)C)CC1 [ADP-597]"
  measured-on: "U2OS"
  measurement-label: "Population Pyknosed Nuclei (%)"
  reported-measurement: 12
- molecule: "CC(C)C[C@H](CO)Nc1nc(S[C@@H](C)c2ccccc2)nc2nc(N)sc12 [AZD-8797]"
  measured-on: "U2OS"
  measurement-label: "Population Pyknosed Nuclei (%)"
  reported-measurement: 6
- molecule: "COc1cc2nc(N3CCN(C(=O)c4ccco4)CC3)nc(N)c2cc1OC.Cl [PRAZOSIN HYDROCHLORIDE]"
  measured-on: "U2OS"
  measurement-label: "Population Pyknosed Nuclei (%)"
  reported-measurement: 7
- molecule: "CCc1nn2c(C)cc(C)nc2c1Cc1ccc(-c2nnc(C3CCNCC3)o2)cc1"
  measured-on: "U2OS"
  measurement-label: "Population Pyknosed Nuclei (%)"
  reported-measurement: 14
- molecule: "Cl.Cl.OCCOCCN1CCN(C(c2ccccc2)c2ccc(Cl)cc2)CC1 (stereo not drawn) [HYDROXYZINE HYDROCHLORIDE]"
  measured-on: "U2OS"
  measurement-label: "Population Pyknosed Nuclei (%)"
  reported-measurement: 8
- molecule: "O=c1ccc2ccc(OCCCCN3CCN(c4cccc5sccc45)CC3)cc2[nH]1 [BREXPIPRAZOLE]"
  measured-on: "U2OS"
  measurement-label: "Population Pyknosed Nuclei (%)"
  reported-measurement: 21
- molecule: "CSc1nc(NC2CCCC2)c([N+](=O)[O-])c(NC2CCCC2)n1 [GS-39783]"
  measured-on: "U2OS"
  measurement-label: "Population Pyknosed Nuclei (%)"
  reported-measurement: 7
- molecule: "O=c1nc2[nH]c3ccccc3nc-2c(=O)[nH]1 [ALLOXAZINE]"
  measured-on: "U2OS"
  measurement-label: "Population Pyknosed Nuclei (%)"
  reported-measurement: 8
- molecule: "COCCCN1CCC(NC(=O)c2cc(Cl)c(N)c3c2OCC3)CC1 [PRUCALOPRIDE]"
  measured-on: "U2OS"
  measurement-label: "Population Pyknosed Nuclei (%)"
  reported-measurement: 11
